EXPERIMENTAL TARGET: Glutaminyl-peptide cyclotransferase (Homo sapiens)
Sequence (Q16769 whole entry): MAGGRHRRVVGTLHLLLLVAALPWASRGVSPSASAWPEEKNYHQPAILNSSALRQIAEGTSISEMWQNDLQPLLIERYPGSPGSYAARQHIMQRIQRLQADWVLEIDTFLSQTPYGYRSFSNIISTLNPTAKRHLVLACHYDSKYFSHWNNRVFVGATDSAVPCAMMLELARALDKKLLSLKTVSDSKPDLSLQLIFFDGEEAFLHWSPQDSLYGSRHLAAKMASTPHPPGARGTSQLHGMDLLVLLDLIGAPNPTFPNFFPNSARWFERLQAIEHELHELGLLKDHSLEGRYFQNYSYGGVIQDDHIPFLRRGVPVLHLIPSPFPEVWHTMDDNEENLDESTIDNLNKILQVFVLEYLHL
ASSAY EXPLANATION: Binding affinity to QPCT (unknown origin) assessed as inhibition constant
METRIC NAME: Ki

The recorded Ki for entry CCCOc1ccc(C2c3c(nn(C)c3C)C(=O)N2c2ccc3[nH]cnc3c2)c(F)c1 (stereo unspecified) equals < 100 nM

----------
EXPERIMENTAL TARGET: Glutaminyl-peptide cyclotransferase-like protein (Homo sapiens)
Sequence (Q9NXS2 whole entry): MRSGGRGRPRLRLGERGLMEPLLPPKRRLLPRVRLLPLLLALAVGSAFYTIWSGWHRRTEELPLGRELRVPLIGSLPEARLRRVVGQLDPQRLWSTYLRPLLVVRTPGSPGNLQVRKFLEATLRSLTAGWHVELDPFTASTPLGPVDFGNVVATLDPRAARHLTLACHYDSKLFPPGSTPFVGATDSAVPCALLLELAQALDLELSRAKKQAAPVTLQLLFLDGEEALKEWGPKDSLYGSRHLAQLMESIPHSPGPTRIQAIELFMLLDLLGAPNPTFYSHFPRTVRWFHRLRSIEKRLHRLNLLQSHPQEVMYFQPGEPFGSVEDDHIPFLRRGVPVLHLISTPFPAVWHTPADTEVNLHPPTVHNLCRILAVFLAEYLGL
METRIC NAME: Kd (µM)
Hi! Could you send only the number? It should be in µM, unit omitted.

The recorded Kd for entry O=c1cc(-c2ccc(O)c(O)c2)oc2cc(O)cc(O)c12 equals 9.4
